Origin of measurements: PubChem BioAssay (NCI)

Tested on: KM12 colon
MEASUREMENT_DESCRIPTION: NCI tumour cell line growth inhibition, 48 h
PROPERTY_MEASURED: TGI

(Q) Identify measured TGI corresponding to CC1CN(c2cc3c(cc2F)c(=O)c(C(=O)O)cn3-c2ccc(F)cn2)CC(C)N1 (stereo unspecified)
(A) > 100 µM

(Q) Provide TGI value for the following compound: N#CC1(C#N)C2C=CC(c3coc4cccc2c34)C1(C#N)C#N (stereo unspecified)
(A) 33.8 µM

(Q) Note down TGI recorded for CCOC(=O)C(CC/C=C\c1ccccc1)N1CCC[C@H]1C(=O)OC (stereo partly specified)
(A) > 100 µM

(Q) Answer with reported TGI of COc1cc2c(cc1OC)CC1c3cc(OC)c(OC)cc3CCN1CC2 (stereo unspecified)
(A) > 100 µM

(Q) Given O=NNc1ccc(Sc2ccc(NN=O)cn2)nc1 , respond with its TGI.
(A) > 100 µM

(Q) Read off the recorded TGI for Cc1ccc2c(ccc(/C=C\c3cc(C)c4cccnc4c3O)[n+]2C)c1
(A) 31.6 µM

(Q) // fetch TGI given entry O=C(O)c1c(=O)cccc2ssc12
(A) 3.72 µM

(Q) Identify measured TGI corresponding to CO/N=C\c1cc(O)c(O)c(/C=N/OC)c1
(A) > 100 µM

(Q) Please look at this compound and report its TGI: CN(C)CCNC(=O)Cn1cnc2cccc([N+](=O)[O-])c2c1=O
(A) > 100 µM

(Q) Could you please provide reported TGI for CC(C)(C)c1ccc(OCCOCCOc2ccc(C(C)(C)C)cc2S(=O)(=O)Nc2ccc([N+](=O)[O-])cc2)c(S(=O)(=O)Nc2ccc([N+](=O)[O-])cc2)c1 ? Thanks!
(A) > 100 µM

(Q) Indicate its recorded TGI; the compound in question is OC(c1ccc2c(c1)OCO2)c1ccc2c(c1)OCO2
(A) > 100 µM

###

Record form. Attribute: GI50. Fill in for each entry.
Test system: M14 melanoma
MEASUREMENT_DESCRIPTION: NCI tumour cell line growth inhibition, 48 h

(Q) # return recorded GI50 for input CN(CC(=O)Nc1nc2ccccc2[nH]1)S(=O)(=O)c1ccc(Cl)cc1
(A) > 100 µM

(Q) Tell me GI50 reported for CC(=[N-])N1CCC[C@@H](Nc2c3ccccc3nc3ccccc23)C1.[Cl][Pt].[NH-]CCC[NH-]
(A) 3.47 µM

(Q) Note down GI50 recorded for Cc1cc(-c2ccccn2)cc(C)c1/C=C/c1cncc(-c2nn[nH]n2)c1
(A) > 25 µM

(Q) Provide one value: measured GI50 of C=C1C(=O)O[C@H]2[C@H]1CC/C(COC(=O)C(C)c1ccc(CC(C)C)cc1)=C\CC[C@@]1(C)O[C@@H]21 (stereo partly drawn)
(A) 0.688 µM

(Q) Return the recorded GI50 value; entry: NS(=O)(=O)NCCNc1nonc1C(=Nc1ccc(F)c(Br)c1)NO
(A) 28.1 µM

(Q) Give reported GI50 value for Oc1c(Cl)cc(Cl)cc1C(c1cc(Cl)cc(Cl)c1O)C(Cl)(Cl)Cl
(A) 3.11 µM

(Q) Please report the measured GI50 for CCC(=O)Nc1ccc(C)c(-c2ccc(C(=O)NCC3CC3)cc2)c1
(A) > 25 µM

(Q) // fetch GI50 given entry O=C1C=CC(=O)N1c1cccc(N2C(=O)C=CC2=O)c1
(A) 1.85 µM

(Q) Provide one value: measured GI50 of CC1=C(C(=O)Nc2cc(Cl)c3[nH]ncc3c2)C(c2ccc(C(F)(F)F)cc2)CC(=O)N1 (stereo not drawn)
(A) > 25 µM

(Q) Specify measured GI50 for Cc1ccc(C(=O)/C(=C\c2ccc([N+](=O)[O-])cc2)S(=O)Cc2ccc(Cl)cc2)cc1 (stereo not drawn) .
(A) 1.65 µM

(Q) Determine its reported GI50: O=C(N/N=C/c1ccc(O)cc1O)c1cccc(Nc2ccnc(C(F)(F)F)c2)c1
(A) 0.925 µM

(Q) Tell me GI50 reported for O=C(NO)[C@@H](Cc1ccccc1)NS(=O)(=O)c1ccc(-c2ccccc2)cc1
(A) > 25 µM

(Q) Respond only with GI50 recorded for CCn1c(-c2nonc2N)nc2c(C#CC(C)(C)O)ncc(OC[C@H]3CCCNC3)c21
(A) 14.8 µM

###

Kindly state TGI for each of the entries shown.
System: SNB-75 CNS
MEASUREMENT_DESCRIPTION: NCI tumour cell line growth inhibition, 48 h
Where a SMILES comes first, the peptide text is derived from it. [ ]: non-standard residue; d: D form. ξ: configuration not given here. ξLac(3-iPr) = CC(C)CC(O)C(=O)O; NMeV = CN[CH](C(=O)O)C(C)C; NMeA = CN[CH](C)C(=O)O; βAla = NCCC(=O)O

(Q) Identify measured TGI corresponding to Cc1ccc(OCC2OC(n3cnc4c(Cl)nc(Cl)nc43)CC2Oc2ccc(C)cc2)cc1 (stereo unspecified)
(A) 5.39 µM

(Q) // fetch TGI given entry O=C(CCc1ccccc1)n1cccc1CO
(A) > 100 µM

(Q) Give the value of TGI reported for the following: Cc1nc2[nH]ncn2c(=O)c1CCCl
(A) > 10 µM

(Q) Tell us which TGI value is on record for O=C(c1ccccc1)C1C(c2ccccc2)N1S(=O)(=O)c1ccccc1 (stereo unspecified)
(A) > 100 µM

(Q) Return the recorded TGI value; entry: CSc1nc(C)c(CCOC(C)=O)c(Cl)n1
(A) > 100 µM

(Q) Determine from records and report TGI for Clc1ccc(C[P+]2(c3ccccc3)CCCCC2)cc1
(A) > 100 µM

(Q) # return recorded TGI for entry Cc1ccc(C2COc3cc(O)c(O)cc3C2)cc1 (stereo unspecified)
(A) 126 µM

(Q) Give the value of TGI reported for the following: CC(C)C[C@H](NC(=O)[C@H](Cc1ccc(F)cc1)NC(=O)c1ccccn1)B(O)O
(A) < 0.01 µM

(Q) // fetch TGI given entry CN1C(=O)C(O)CC1c1ccccc1C(F)(F)F (stereo unspecified)
(A) > 100 µM

(Q) Tell me its TGI given CCOC(=O)C(CC/C=C\c1ccccc1)N1CCC[C@H]1C(=O)OC (stereo partly specified) as the entry.
(A) > 100 µM

(Q) Give the value of TGI reported for the following: CCC(C)C1NC(=O)C2CCCN2C(=O)C(CC(C)C)OC(=O)CCNC(=O)C(C)N(C)C(=O)C(C(C)C)N(C)C1=O (stereo unspecified) (cyclo([ξLac(3-iPr)]PI[NMeV][NMeA][βAla]); configuration not given here)
(A) > 86.8 µM

(Q) Quick one: give measured TGI for ON[C@H]1C[C@@H](n2cnc3c(NC4CC4)ncnc32)[C@H](O)[C@@H]1O
(A) > 100 µM

(Q) Supply measured TGI of C/C(=C\c1cc(C(F)(F)F)n(-c2ccc(N)cc2)n1)[C@@H]1C[C@@H]2O[C@]2(C)CCC[C@H](C)[C@H](O)[C@@H](C)C(=O)C(C)(C)[C@@H](O)CC(=O)O1 in your reply.
(A) 0.189 µM

(Q) Could you please provide reported TGI for COc1ccc(/C(=C/n2ccnc2)C(O)c2ccc(OC)c(OC)c2)cc1OC (stereo unspecified) ? Thanks!
(A) > 100 µM

(Q) Respond only with TGI recorded for O=C1C=CC(=O)N1c1cccc(N2C(=O)C=CC2=O)c1
(A) 18.3 µM

(Q) Give the reported TGI for this molecule. CN1CCN(c2ccc(NC(=O)c3cncnc3Nc3ccc(OCc4ccccn4)c(Cl)c3)cc2)CC1
(A) 9.23 µM

(Q) Input NS(=O)(=O)NCCNc1nonc1C(=Nc1ccc(F)c(Br)c1)NO , output reported TGI.
(A) > 100 µM

(Q) Please give the documented TGI of COc1ccc(/C=C2\CCC(CCN(C)C)(C3=CCCC3)C2=O)cc1Br (stereo unspecified)
(A) 17.5 µM

(Q) Respond only with TGI recorded for CCn1c(-c2nonc2N)nc2c(C#CC(C)(C)O)ncc(OC[C@H]3CCCNC3)c21
(A) 1.54 µM

(Q) Please give the documented TGI of CCC(=O)Nc1ccc(C)c(-c2ccc(C(=O)NCC3CC3)cc2)c1
(A) > 25 µM

(Q) Answer with the recorded TGI for the molecule listed here: O=C(NO)[C@@H](Cc1ccccc1)NS(=O)(=O)c1ccc(-c2ccccc2)cc1
(A) > 25 µM

###

Test system: EKVX NSCLC
MEASUREMENT_DESCRIPTION: NCI tumour cell line growth inhibition, 48 h
Kindly supply the reported GI50 values for the records listed here.

(Q) Identify measured GI50 obtained with EKVX NSCLC for Cc1cc(-c2ccccn2)cc(C)c1/C=C/c1cncc(-c2nn[nH]n2)c1 .
(A) > 25 µM

(Q) Print EKVX NSCLC GI50 for CC([C@H]1CCC2C3CCC4C[C@@H](N)CC[C@]4(C)C3CC[C@@]21C)N(C)C (stereo not given in full) .
(A) 13.8 µM

(Q) Recall the reported GI50 of CC1=C(C(=O)Nc2cc(Cl)c3[nH]ncc3c2)C(c2ccc(C(F)(F)F)cc2)CC(=O)N1 (stereo not given) when tested on EKVX NSCLC.
(A) > 25 µM

(Q) Report its GI50 with EKVX NSCLC as the test system: Cc1cc(N2CCOCC2)nc(N(CCCNc2ccnc3cc(Cl)ccc23)Cc2ccco2)n1
(A) 3.73 µM

(Q) Param request: GI50 | system EKVX NSCLC | item CCCN(CCC)c1ccc(/C=N/NC(=O)c2cccnc2)c(OC)c1
(A) 16.9 µM
